Tested on: Salmonella sp.
PROTOCOL_NOTES: Antibacterial activity against Salmonella sp. at 6.25 ug/ml after 24 to 48 hrs by well plate diffusion method
Format: functional
MEASUREMENT_SETUP: read-out: DIZ
For each entry below, report its zone of inhibition at 6.25 µg/mL value.
# output: bare number, implied unit mm

Problem: Which measured zone of inhibition at 6.25 µg/mL value corresponds to `Fc1ccc(-c2cc(-c3nc4ccc(F)cc4[nH]3)c3cc(F)ccc3n2)cc1` ?
Result: 9

Problem: What zone of inhibition at 6.25 µg/mL value was documented for this compound, `Fc1ccc(-c2cc(-c3nc4ncccc4[nH]3)c3cc(F)ccc3n2)cc1` ?
Result: 13

Problem: Using the record for `Fc1ccc(-c2cc(-c3nc4ncccc4[nH]3)c3cc(Cl)ccc3n2)cc1` , report its zone of inhibition at 6.25 µg/mL.
Result: 9

Problem: I'd like to know its zone of inhibition at 6.25 µg/mL. The compound in question is `Fc1ccc(-c2cc(-c3nc4cc(Cl)c(Cl)cc4[nH]3)c3cc(F)ccc3n2)cc1`
Result: 9

Problem: Which zone of inhibition at 6.25 µg/mL value is on record for `Fc1ccc(-c2cc(-c3nc4ccc(F)cc4[nH]3)c3ccccc3n2)cc1` ?
Result: 10

Problem: Given the entry `Fc1ccc(-c2cc(-c3nc4ccccc4[nH]3)c3cc(F)ccc3n2)cc1` , report its measured zone of inhibition at 6.25 µg/mL.
Result: 15

Problem: Returns the measured zone of inhibition at 6.25 µg/mL for the input compound. Input: `Fc1ccc(-c2cc(-c3nc4ncccc4[nH]3)c3ccccc3n2)cc1`
Result: 9

Problem: Please give the measured zone of inhibition at 6.25 µg/mL for this compound: `Fc1ccc(-c2cc(-c3nc4cc(Cl)c(Cl)cc4[nH]3)c3cc(Cl)ccc3n2)cc1`
Result: 20

Problem: Which zone of inhibition at 6.25 µg/mL is listed for `O=C(O)c1cn(C2CC2)c2cc(N3CCNCC3)c(F)cc2c1=O` ?
Result: 19
